TARGET_UNDER_TEST: T1, 人皮肤成纤维细胞(HDF)上的IL-17RA (UniProt Q96F46 33-866, limits assumed)
T1 sequence (looked up): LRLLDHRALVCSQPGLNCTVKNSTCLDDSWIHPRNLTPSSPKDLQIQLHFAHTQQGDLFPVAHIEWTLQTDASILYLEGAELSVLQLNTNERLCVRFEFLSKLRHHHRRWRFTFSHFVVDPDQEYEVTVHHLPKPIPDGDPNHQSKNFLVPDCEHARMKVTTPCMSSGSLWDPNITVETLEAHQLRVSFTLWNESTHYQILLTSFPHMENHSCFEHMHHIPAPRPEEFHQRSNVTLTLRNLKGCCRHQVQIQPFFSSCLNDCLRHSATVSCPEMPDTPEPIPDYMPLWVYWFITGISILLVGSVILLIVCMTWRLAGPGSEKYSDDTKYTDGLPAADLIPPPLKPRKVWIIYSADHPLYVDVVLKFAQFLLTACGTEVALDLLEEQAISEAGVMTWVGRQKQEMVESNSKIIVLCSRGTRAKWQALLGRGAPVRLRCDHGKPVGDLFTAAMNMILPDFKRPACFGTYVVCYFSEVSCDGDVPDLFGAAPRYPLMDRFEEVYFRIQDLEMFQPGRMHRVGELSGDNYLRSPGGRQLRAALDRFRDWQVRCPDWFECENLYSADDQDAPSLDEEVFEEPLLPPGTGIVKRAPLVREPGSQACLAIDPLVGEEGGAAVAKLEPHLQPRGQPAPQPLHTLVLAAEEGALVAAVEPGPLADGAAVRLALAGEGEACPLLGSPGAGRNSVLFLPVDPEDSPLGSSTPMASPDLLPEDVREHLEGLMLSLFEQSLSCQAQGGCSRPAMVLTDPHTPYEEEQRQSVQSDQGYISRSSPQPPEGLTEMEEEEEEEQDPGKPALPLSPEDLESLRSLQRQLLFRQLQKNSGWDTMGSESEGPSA
ASSAY_DETAILS: cell-based or functional assay
MEASURED_METRIC: 抑制HDF细胞产生IL-6 IC50(ng/ml) (ng/mL)
Report only the number, with the unit ng/mL understood.

mAb-7全抗体 (antibody, human IgG1, kappa, V domains shown) VH: QVQLVQSGAEVKKPGASVKVSCKASGYTFTSYGISWVRQAPGQGLEWMGWISTYSGNTNYAKNLQGRVTMTTDTSTSTAYMELRSLRSDDTAVYYCARRVLRLDYWGQGTLVTVSS VL: EIVMTQSPATLSVSPGERATLSCRASQDISISLGWFQQKPGQAPRPLIYGWNTRATGVPARFSGSGSGTDFTLTISSLQSEDFAVYYCQQYSDPFLTFGGGTKVEIKR; 29.7
mAb-10全抗体 (antibody, human IgG1, kappa, V domains shown) VH: QVQLVQSGAEVKKPGASVKVSCKASGYSFSSYGISWVRQAPGQGLEWMGWISTYSGNTNYAKKFKGRVTMTTDTSTSTAYMELRSLRSDDTAVYYCARRVLRLDYWGQGTLVTVSS VL: DIQMTQSPSSLSASVGDRVTITCRASQSVHTGLNWYQQKPGKAPKLLIYGASNLQSGVPSRFSGSGSGTDFTLTISSLQPEDFATYYCQQFEHNPLTFGQGIKVEIKR; 36.4
mAb-4全抗体 (antibody, human IgG1, kappa, V domains shown) VH: QVQLVQSGAEVKKPGASVKVSCKASGYAYSNYGISWVRQAPGQGLEWMGWISTYSGNTNYAKKFIGRVTMTTDTSTSTAYMELRSLRSDDTAVYYCARRVLRLDYWGQGTLVTVSS VL: DIQMTQSPSSLSASVGDRVTITCRASQDIDSSLNWYQQKPGKAPKLLIYAASNRESGVPSRFSGSGSGTDFTLTISSLQPEDFATYYCQQWANMPGTFGQGTKVEIKR; 35.8

Now look at this one.
Entry mAb-2全抗体 (antibody, human IgG1, kappa, V domains shown) VH: QVQLVQSGAEVKKPGASVKVSCKASGYAWTRYGISWVRQAPGQGLEWMGWISTYSGNTNYAKKFKGRVTMTTDTSTSTAYMELRSLRSDDTAVYYCARRVLRLDYWGQGTLVTVSS VL: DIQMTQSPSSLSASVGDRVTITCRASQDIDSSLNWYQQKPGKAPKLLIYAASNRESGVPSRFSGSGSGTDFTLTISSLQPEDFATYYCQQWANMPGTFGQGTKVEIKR : reported 抑制HDF细胞产生IL-6 IC50(ng/ml) = ?
22.7
